molecular target: EGFR (ErbB1) (Homo sapiens); construct: purchased Invitrogen; experiment: In vitro kinase assay (Z'-LYTE), EGFR (ErbB1); format: biochemical; settings: read-out: % of inhibition of the kinase compared to the control
Sequence (P00533 25-1210): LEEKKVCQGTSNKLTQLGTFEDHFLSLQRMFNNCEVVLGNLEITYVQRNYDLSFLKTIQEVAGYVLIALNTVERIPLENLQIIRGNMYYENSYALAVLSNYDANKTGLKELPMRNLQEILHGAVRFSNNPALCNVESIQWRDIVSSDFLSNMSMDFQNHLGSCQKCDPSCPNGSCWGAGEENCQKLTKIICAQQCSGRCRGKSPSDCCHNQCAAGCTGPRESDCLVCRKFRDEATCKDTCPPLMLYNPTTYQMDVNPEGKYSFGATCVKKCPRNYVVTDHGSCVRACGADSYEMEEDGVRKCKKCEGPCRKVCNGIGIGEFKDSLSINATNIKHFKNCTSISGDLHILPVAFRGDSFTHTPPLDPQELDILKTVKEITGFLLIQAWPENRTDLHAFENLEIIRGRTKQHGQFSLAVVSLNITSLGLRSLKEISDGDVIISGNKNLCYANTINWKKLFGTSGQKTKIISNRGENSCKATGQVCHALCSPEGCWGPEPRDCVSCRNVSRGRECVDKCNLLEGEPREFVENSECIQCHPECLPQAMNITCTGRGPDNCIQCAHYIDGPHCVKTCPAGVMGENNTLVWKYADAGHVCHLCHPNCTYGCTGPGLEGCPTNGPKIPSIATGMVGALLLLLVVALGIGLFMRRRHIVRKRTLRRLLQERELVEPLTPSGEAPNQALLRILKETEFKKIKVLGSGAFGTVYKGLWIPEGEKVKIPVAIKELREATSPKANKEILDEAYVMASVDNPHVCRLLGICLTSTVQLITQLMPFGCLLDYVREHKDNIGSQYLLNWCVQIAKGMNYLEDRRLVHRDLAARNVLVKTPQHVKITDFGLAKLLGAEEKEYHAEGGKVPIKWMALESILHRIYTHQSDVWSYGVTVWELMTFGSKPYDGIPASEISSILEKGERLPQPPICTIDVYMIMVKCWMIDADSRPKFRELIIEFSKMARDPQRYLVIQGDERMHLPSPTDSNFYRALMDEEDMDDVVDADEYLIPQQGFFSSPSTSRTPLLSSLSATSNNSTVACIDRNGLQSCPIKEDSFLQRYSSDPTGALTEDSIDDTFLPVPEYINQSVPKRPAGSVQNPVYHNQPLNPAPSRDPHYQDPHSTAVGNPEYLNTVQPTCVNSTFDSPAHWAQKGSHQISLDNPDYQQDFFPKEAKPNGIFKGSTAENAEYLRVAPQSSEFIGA
reportedProperty: inhibition at 0.1 µM

CC(=O)c1cc2cc(NC(=O)c3cc(NC(=O)c4ccc(CN5CCN(C)CC5)c(C(F)(F)F)c4)ccc3C)cnc2[nH]1    ≥ 50%

q: State, in one line, measured inhibition at 0.1 µM of CC(=O)c1cc2cc(NCc3cc(NC(=O)Nc4cccc(C(F)(F)F)c4)ccc3C)cnc2[nH]1
a: < 50%

q: Answer with the recorded inhibition at 0.1 µM of Cc1ccc(NC(=O)c2ccc(CN3CCN(C)CC3)c(C(F)(F)F)c2)cc1CNc1cnc2[nH]c(C(=O)O)cc2c1 only.
a: ≥ 50%

q: Supply inhibition at 0.1 µM value. Item: CC(=O)c1cc2cc(NCc3cc(NC(=O)c4ccc(CN5CCN(C)CC5)c(F)c4)ccc3C)cnc2[nH]1
a: ≥ 50%

q: Annotate the molecule Cc1ccc(NC(=O)c2ccc(CN3CCN(C)CC3)cc2)cc1CNc1cnc2[nH]c(C(=O)O)cc2c1 with its measured inhibition at 0.1 µM.
a: ≥ 50%

q: State, in one line, measured inhibition at 0.1 µM of CC(=O)c1cc2cc(NCc3cc(NC(=O)c4ccc(CN5CC[C@H](N(C)C)C5)c(C(F)(F)F)c4)ccc3C)cnc2[nH]1
a: ≥ 50%

----------
target: BRAF (Homo sapiens); construct: purchased Invitrogen; assay: In vitro kinase assay (Z'-LYTE), BRAF; format: biochemical; details: read-out: % of inhibition of the kinase compared to the control
Sequence (P15056 whole entry): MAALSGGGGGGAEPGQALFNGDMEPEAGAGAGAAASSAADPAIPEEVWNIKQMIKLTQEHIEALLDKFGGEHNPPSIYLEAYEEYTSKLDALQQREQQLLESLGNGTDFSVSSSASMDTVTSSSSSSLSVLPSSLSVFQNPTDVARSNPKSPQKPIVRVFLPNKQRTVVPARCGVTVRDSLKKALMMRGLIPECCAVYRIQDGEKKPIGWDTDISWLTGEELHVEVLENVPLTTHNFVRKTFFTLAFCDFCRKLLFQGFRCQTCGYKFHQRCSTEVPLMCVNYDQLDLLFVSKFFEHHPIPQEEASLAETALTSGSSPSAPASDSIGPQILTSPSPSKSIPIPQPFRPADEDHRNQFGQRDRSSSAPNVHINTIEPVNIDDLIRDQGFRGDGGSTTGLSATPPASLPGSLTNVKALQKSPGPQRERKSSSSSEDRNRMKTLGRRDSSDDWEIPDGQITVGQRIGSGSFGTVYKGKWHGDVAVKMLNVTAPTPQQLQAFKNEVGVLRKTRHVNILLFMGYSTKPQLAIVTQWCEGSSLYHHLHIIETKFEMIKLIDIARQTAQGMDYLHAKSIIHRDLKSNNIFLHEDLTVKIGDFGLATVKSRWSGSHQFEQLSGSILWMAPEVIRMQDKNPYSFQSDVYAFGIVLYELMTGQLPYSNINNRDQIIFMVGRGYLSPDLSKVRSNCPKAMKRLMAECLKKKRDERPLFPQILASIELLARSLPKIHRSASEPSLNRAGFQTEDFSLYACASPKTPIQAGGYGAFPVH
reportedProperty: inhibition at 0.1 µM

CC(=O)c1cc2cc(NCc3cc(NC(=O)c4cncc(C(F)(F)F)c4)ccc3C)cnc2[nH]1    ≥ 50%
CC(=O)c1cc2cc(NCc3cc(NC(=O)c4ccc(CN5CC[C@H](N(C)C)C5)c(C(F)(F)F)c4)ccc3F)cnc2[nH]1    < 50%
CC(=O)c1cc2cc(NCc3cc(NC(=O)c4ccnc(C)c4)ccc3C)cnc2[nH]1    ≥ 50%
CC(=O)c1cc2cc(NC(=O)c3cc(NC(=O)c4ccc(CN5CCN(C)CC5)c(C(F)(F)F)c4)ccc3C)cnc2[nH]1    ≥ 50%

q: Provide one value: measured inhibition at 0.1 µM of CC(=O)c1cc2cc(NCc3cc(NC(=O)c4ccncn4)ccc3C)cnc2[nH]1
a: < 50%

q: Output inhibition at 0.1 µM of CC(=O)c1cc2cc(NCc3cccc(NC(=O)c4cncc(C(F)(F)F)c4)c3)cnc2[nH]1
a: ≥ 50%

----------
target: BRAF (Homo sapiens); construct: purchased Invitrogen; assay: In vitro kinase assay (Z'-LYTE), BRAF; type: biochemical; settings: read-out: % of inhibition of the kinase compared to the control
Overview of recorded inhibition at 0.1 µM for various compounds

Worked examples, 4 compounds total:
CC(=O)c1cc2cc(NCc3cc(NC(=O)c4ccc5[nH]nnc5c4)ccc3C)cnc2[nH]1    ≥ 50%
Cc1ccc(NC(=O)c2ccc(CN3CCN(C)CC3)c(C(F)(F)F)c2)cc1CNc1cnc2[nH]c(C(=O)O)cc2c1    < 50%
CC(=O)c1cc2cc(NCc3ccc(F)c(NC(=O)c4cncc(C(F)(F)F)c4)c3)cnc2[nH]1    ≥ 50%
CC(=O)c1cc2cc(NCc3cc(NC(=O)C4CC4)ccc3C)cnc2[nH]1    < 50%

q: For CC(=O)c1cc2cc(NCc3cc(NC(=O)Cc4cccc(C(F)(F)F)c4)ccc3C)cnc2[nH]1 , write its inhibition at 0.1 µM.
a: ≥ 50%

q: Answer with the recorded inhibition at 0.1 µM of CC(=O)c1cc2cc(NCc3cc(NC(=O)c4ccc(CN5CCN(C)CC5)c(C(F)(F)F)c4)ccc3C)cnc2[nH]1 only.
a: ≥ 50%

q: Please give measured inhibition at 0.1 µM of the following entry: CC(=O)c1cc2cc(NCc3cc(NC(=O)c4ccc(Cl)c(C(F)(F)F)c4)ccc3C)cnc2[nH]1
a: < 50%

q: Identify the reported inhibition at 0.1 µM for the following entry. CC(=O)c1cc2cc(NCc3cc(NC(=O)c4ccnc(C(F)(F)F)c4)ccc3C)cnc2[nH]1
a: ≥ 50%

q: Given CC(=O)c1cc2cc(NC(=O)c3cc(NC(=O)Nc4cccc(C(F)(F)F)c4)ccc3C)cnc2[nH]1 , respond with its inhibition at 0.1 µM.
a: < 50%

q: Respond only with inhibition at 0.1 µM recorded for Cc1ccc(NC(=O)c2cncc(C(F)(F)F)c2)cc1C(=S)Nc1cnc2[nH]c(C(=O)O)cc2c1
a: < 50%

Reference source: patent US9403823B2
